The reported numbers originate from patent US6498252B1.

Target: MMP-8, catalytic domain (Homo sapiens, UniProt P22894)
Construct: Enzyme: 8 nM catalytic domain (Met80-Gly242) of human neutrophil collagenase (MMP-8); made in house
Sequence (P22894 100-262 limits assumed): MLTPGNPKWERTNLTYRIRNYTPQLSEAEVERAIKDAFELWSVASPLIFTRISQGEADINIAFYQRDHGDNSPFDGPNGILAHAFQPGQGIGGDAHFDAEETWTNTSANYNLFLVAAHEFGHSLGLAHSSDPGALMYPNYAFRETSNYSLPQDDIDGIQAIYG
Assay: Inhibition of MMP-8 (HNC) catalytic domain, fluorogenic substrate cleavage
Type: biochemical
Settings: catalytic domain of human neutrophil collagenase (MMP-8); substrate DNP-Pro-Leu-Gly-Leu-Trp-Ala-D-Arg-NH2; 25° C.; read-out: IC50 Values of MMP-Inhibitor (vs. MMP-8, catalytic domain)
Procedure: In order to determine the inhibition of MMPs, for example HNC (MMP-8), the catalytic domain (isolation and purification see for example Schnierer, S., Kleine, T., Gote, T., Hillemann, A., Knäuper, V., Tschesche, H.,Biochem. Biophys. Res. Commun. (1993) 191, 319-326) were incubated with inhibitors having various concentrations. Subsequently, the initial reaction rate in the conversion of a standard substrate was measured in a manner analogous to Grams F. et al., FEBS 335 (1993) 76-80). […]
RESULT TYPE: IC50 (nM)
Give your result in nM as a bare value.

1) O=C1NC(=O)C(c2ccc(Oc3ccc(Cl)cc3)cc2)(N2CCN(c3ncccn3)CC2)C(=O)N1; 10
2) O=C1NC(=O)C(c2ccc(Oc3ccc(Br)cc3)cc2)(N2CCN(c3ncccn3)CC2)C(=O)N1; 4
3) O=C1NC(=O)C(c2ccc(Oc3ccccc3)cc2)(N2CCN(c3ccc(S(=O)(=O)NC(CO)(CO)CO)cc3)CC2)C(=O)N1; 13
4) O=C1NC(=O)C(c2ccc(Oc3ccc(Cl)cc3)cc2)(N2CCN(c3ccc(S(=O)(=O)NCCO)cc3)CC2)C(=O)N1; 10
5) NS(=O)(=O)c1ccc(N2CCN(C3(c4ccc(Oc5ccc(Br)cc5)cc4)C(=O)NC(=O)NC3=O)CC2)cc1; 2.8

Q: If you can, please state the reported IC50 value of O=C1NC(=O)C(c2ccc(Oc3ccc(Cl)cc3)cc2)(N2CCN(c3cnccn3)CC2)C(=O)N1 .
Ans: 4

Q: If you can, please state the reported IC50 value of O=C1NC(=O)C(c2ccc(Oc3ccc(Cl)c(Cl)c3)cc2)(N2CCN(c3ncccn3)CC2)C(=O)N1 .
Ans: 4

Q: If you can, please state the reported IC50 value of O=C1NC(=O)C(c2ccc(Oc3ccc(Cl)c(Cl)c3)cc2)(N2CCN(c3cnccn3)CC2)C(=O)N1 .
Ans: 2

Q: If you can, please state the reported IC50 value of CN(C)CCNS(=O)(=O)c1ccc(N2CCN(C3(c4ccc(Oc5ccc(Br)cc5)cc4)C(=O)NC(=O)NC3=O)CC2)cc1 .
Ans: 13

----------
# IC50 annotations
Target: MMP-8, catalytic domain (Homo sapiens, UniProt P22894)
Construct: Enzyme: 8 nM catalytic domain (Met80-Gly242) of human neutrophil collagenase (MMP-8); made in house
Assay: Inhibition of MMP-8 (HNC) catalytic domain, fluorogenic substrate cleavage
Type: biochemical
Give your result in nM as a bare value.

Some compounds with known IC50 results, for comparison:
1) O=C1NC(=O)C(c2ccc(Oc3ccc(Cl)cc3)cc2)(N2CCN(c3ccc(S(=O)(=O)N(CCO)CCO)cc3)CC2)C(=O)N1; 9
2) O=C1NC(=O)C(c2ccc(Oc3ccc(Cl)cc3)cc2)(N2CCN(c3ccc(S(=O)(=O)NC(CO)(CO)CO)cc3)CC2)C(=O)N1; 9
3) O=C1NC(=O)C(c2ccc(Oc3ccccc3)cc2)(N2CCN(c3ccc(S(=O)(=O)NCCOCCOCCO)cc3)CC2)C(=O)N1; 6
4) O=C1NC(=O)C(c2ccc(Oc3ccccc3)cc2)(N2CCN(c3ccc(S(=O)(=O)NCC4COC(=O)O4)cc3)CC2)C(=O)N1 (stereo not shown); 9
5) O=C1NC(=O)C(c2ccc(Oc3ccccc3)cc2)(N2CCN(c3ccc(S(=O)(=O)NC(CO)CO)cc3)CC2)C(=O)N1; 5.5

Q: If you can, please state the reported IC50 value of NS(=O)(=O)c1ccc(N2CCN(C3(c4ccc(Oc5ccc(Cl)cc5)cc4)C(=O)NC(=O)NC3=O)CC2)cc1 .
Ans: 12

Q: If you can, please state the reported IC50 value of O=C1NC(=O)C(c2ccc(Oc3ccccc3)cc2)(N2CCN(c3ccc(S(=O)(=O)NCC(O)CO)cc3)CC2)C(=O)N1 (stereo not shown) .
Ans: 4.5
